TEST_DETAILS: activity coefficient (dimensionless); of the first substance listed, at infinite dilution; xn = mol fraction of the nth substance listed
ASSAY_CONDITIONS: 323.15 K; Liquid; dilutor; x1 = 0
OBSERVATION_TYPE: activity coefficient
API doc: respond with a numeric literal and nothing else, no unit.

> print(dat)
                                   compound      observation.type  numeric.readout
1  C1CCCCC1 [cyclohexane] + CCCCCC[n+]1ccn(C)c1.O=S(=O)([N-]S(=O)(=O)C(F)(F)F)C(F)(F)F  activity coefficient             4.78
2  C1CCCCC1 [cyclohexane] + CCCC[N+]1(C)CCCC1.O=S(=O)([N-]S(=O)(=O)C(F)(F)F)C(F)(F)F  activity coefficient             7.91

Any idea what activity coefficient was measured for C=CCCC [1-pentene] + CCCCCC[n+]1ccn(C)c1.O=S(=O)([N-]S(=O)(=O)C(F)(F)F)C(F)(F)F ?
3.3
